target: Hexokinase-4 (Homo sapiens); assay: Activation of human recombinant glucokinase expressed in Escherichia coli coexpressing G6PDH at 10 uM using 20 mM glucose measured as ratio of enzyme activation in compound treated to Ro-28-1675 by G6PDH coupled continuous spectrophotometric assay
measured-metric: Ratio
# print the numeric value only

[
  {
    "structure-smiles-string": "CC(=O)OCc1cc(C(=O)Nc2nc3c(s2)CCC3)c(C)o1",
    "tested-on": "Hexokinase-4 (Homo sapiens)",
    "Ratio": 0.305
  },
  {
    "structure-smiles-string": "CCc1oc(-c2ccccc2C(N)=O)cc1C(=O)Nc1nc2c(s1)CCC2",
    "tested-on": "Hexokinase-4 (Homo sapiens)",
    "Ratio": 0.509
  }
]

Param item = Cc1cc(C(=O)Nc2nc3c(s2)CCCC3)c(C)s1 ; retrieve measured Ratio.
0.038

What about Cc1oc(-c2ccccc2C(=O)N(C)C)cc1C(=O)Nc1nc2c(s1)CCC2 ?
-0.026

What about Nc1ccc2sc(NC(=O)c3ccccc3)nc2c1 ?
-0.051

What about COC(=O)CCc1cc(C(=O)Nc2nc3c(s2)CCC3)c(C)o1 ?
0.154

What about Cc1sc(-c2ccccc2S(C)(=O)=O)cc1C(=O)Nc1nc2c(s1)CCC2 ?
0.495

What about CCc1sc(-c2ccccc2C(C)=O)cc1C(=O)Nc1nc2c(s1)CCCC2 ?
0.182

What about O=C(Nc1nc(C2CCCCC2)cs1)c1ccccc1 ?
0.029

What about CCc1oc(-c2ccccc2S(C)(=O)=O)cc1C(=O)Nc1nc2c(s1)CCC2 ?
0.343

What about CC(=O)c1ccccc1-c1cc(C(=O)Nc2nc3c(s2)CCC3)c(C)s1 ?
0.627
